Target: native human MET on living cells (human, UniProt P08581 25-1390)
Sequence (P08581 25-1390): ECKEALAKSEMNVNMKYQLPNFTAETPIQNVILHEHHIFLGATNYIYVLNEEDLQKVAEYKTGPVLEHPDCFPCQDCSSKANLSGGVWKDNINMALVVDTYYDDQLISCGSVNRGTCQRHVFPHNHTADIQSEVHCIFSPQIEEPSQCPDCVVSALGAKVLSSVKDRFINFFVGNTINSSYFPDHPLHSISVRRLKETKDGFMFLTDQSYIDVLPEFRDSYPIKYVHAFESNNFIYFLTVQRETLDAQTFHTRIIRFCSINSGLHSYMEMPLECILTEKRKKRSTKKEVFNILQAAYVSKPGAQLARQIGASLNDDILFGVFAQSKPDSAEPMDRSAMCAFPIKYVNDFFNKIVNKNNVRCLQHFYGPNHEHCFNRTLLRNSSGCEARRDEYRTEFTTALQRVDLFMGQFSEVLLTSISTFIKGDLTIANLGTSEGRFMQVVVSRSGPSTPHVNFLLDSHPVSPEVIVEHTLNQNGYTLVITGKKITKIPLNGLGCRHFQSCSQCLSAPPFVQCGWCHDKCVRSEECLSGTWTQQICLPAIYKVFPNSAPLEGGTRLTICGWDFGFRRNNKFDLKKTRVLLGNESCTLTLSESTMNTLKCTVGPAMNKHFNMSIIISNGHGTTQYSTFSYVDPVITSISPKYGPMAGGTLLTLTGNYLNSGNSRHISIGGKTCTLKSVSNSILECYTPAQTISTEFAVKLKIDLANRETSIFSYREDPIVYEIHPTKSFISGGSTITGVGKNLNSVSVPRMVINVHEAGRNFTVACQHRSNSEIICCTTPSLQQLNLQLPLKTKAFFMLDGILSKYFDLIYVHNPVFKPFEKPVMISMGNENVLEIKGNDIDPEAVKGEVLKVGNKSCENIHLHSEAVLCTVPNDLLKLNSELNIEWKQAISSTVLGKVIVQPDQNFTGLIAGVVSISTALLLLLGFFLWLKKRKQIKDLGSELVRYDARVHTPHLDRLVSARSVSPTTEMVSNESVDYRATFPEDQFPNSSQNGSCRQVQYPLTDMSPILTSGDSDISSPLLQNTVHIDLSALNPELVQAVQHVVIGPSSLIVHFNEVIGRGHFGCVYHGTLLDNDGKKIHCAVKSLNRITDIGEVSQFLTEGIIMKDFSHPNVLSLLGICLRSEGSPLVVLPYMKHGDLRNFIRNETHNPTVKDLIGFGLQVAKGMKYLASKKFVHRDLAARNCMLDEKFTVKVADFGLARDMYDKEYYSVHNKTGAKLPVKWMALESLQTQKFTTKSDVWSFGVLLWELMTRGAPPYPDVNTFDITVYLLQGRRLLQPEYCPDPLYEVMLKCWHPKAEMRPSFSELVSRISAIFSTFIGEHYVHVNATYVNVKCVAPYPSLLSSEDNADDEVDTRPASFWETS
Test: cell-based or functional assay
Each record is given rule met if its reported protection from staurosporine-induced apoptosis EMAX, MCF10A cells is strictly below 50%. Records at or above 50% are given rule not met.

Q. protection from staurosporine-induced apoptosis EMAX, MCF10A cells strictly < 50% for this binder? 71G12 chimeric llama-human IgG1 mAb (antibody, V domains shown, human IgG1 CH1-CH2-CH3 and human CL kappa) VH: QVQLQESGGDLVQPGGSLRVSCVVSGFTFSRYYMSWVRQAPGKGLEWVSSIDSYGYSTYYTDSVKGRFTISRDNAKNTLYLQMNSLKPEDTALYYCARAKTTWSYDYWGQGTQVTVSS VL: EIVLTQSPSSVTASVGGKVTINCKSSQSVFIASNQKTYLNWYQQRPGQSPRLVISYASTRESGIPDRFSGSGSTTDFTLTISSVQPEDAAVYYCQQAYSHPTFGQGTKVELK
A. rule met

Q. Is 50% strictly greater than the binder's reported protection from staurosporine-induced apoptosis EMAX, MCF10A cells? binder: 76G7 chimeric llama-human IgG1 mAb (antibody, V domains shown, human IgG1 CH1-CH2-CH3 and human CL lambda) VH: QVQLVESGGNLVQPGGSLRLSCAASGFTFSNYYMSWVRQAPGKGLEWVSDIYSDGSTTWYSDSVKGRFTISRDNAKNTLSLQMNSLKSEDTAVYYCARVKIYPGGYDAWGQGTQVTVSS VL: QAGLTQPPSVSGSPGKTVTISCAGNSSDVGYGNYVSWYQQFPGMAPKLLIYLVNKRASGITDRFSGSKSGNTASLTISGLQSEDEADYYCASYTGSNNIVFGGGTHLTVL
A. rule not met

Q. Quick check: does 71G2 chimeric llama-human IgG1 mAb (antibody, V domains shown, human IgG1 CH1-CH2-CH3 and human CL lambda; also called 71G2 Human IgG1/lambda) VH: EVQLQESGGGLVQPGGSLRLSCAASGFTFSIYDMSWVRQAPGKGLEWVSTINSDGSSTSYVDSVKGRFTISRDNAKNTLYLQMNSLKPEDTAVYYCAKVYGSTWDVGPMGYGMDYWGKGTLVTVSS VL: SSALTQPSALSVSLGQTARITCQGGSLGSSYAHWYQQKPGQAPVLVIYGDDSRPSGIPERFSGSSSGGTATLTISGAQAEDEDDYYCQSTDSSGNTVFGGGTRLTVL have protection from staurosporine-induced apoptosis EMAX, MCF10A cells under 50%?
A. rule not met

Continuing:
Q. Below 50% on protection from staurosporine-induced apoptosis EMAX, MCF10A cells? Entry 71A3 chimeric llama-human IgG1 mAb (antibody, V domains shown, human IgG1 CH1-CH2-CH3 and human CL lambda) VH: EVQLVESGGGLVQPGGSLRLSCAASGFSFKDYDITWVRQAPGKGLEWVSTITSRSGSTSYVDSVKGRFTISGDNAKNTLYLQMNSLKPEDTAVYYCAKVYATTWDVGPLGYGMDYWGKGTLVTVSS VL: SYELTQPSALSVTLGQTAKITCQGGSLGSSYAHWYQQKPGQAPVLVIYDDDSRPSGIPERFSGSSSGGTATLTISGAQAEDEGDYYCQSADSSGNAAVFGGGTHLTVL
A. rule not met
